Molecular target: human α2c adrenergic receptor (Homo sapiens)
Construct: The entire coding region of α2c (1383 bp), including 2 bp of 5′ UT and 400 bp of 3′ UT; expressed in transfected cells; host or cells: LM(tk−) cells (L-α2c, ATCC CRL-11181), vector pCEXV-3
Assay: Equilibrium competition binding, [3H]rauwolscine, cloned human α2c
measurementKind: pKi
Remember the convention: pKi equals -log10 of concentration in molar.

I would be grateful if you could share the reported pKi for c1nc2c(cc1NC1=NCCN1)CCC2 [Example 21] .
6.34

###

Exercise: state measured EC50 for each of the compounds provided.
Target: human α2c adrenergic receptor (Homo sapiens, UniProt P18825)
Construct: The entire coding region of α2c (1383 bp), including 2 bp of 5′ UT and 400 bp of 3′ UT; expressed in transfected cells; host or cells: LM(tk−) cells (L-α2c, ATCC CRL-11181), vector pCEXV-3
Sequence (P18825 whole entry): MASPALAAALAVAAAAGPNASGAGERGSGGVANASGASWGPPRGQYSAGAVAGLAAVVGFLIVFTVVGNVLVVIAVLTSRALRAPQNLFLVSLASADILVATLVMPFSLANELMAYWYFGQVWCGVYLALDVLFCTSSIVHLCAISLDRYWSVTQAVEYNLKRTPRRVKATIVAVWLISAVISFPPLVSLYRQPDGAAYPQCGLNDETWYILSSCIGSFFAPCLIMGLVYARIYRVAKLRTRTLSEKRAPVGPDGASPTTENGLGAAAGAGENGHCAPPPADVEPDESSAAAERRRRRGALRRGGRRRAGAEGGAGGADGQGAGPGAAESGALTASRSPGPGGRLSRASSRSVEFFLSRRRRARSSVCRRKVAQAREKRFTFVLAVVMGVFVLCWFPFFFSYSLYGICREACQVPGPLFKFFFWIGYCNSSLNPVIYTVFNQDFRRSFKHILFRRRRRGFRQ
Assay: α2 agonist activity: inhibition of forskolin-stimulated cAMP synthesis, α2c cells
Format: cell-based
Conditions: inhibition of forskolin-stimulated cAMP, cloned human α2c; read-out: α2c pEC50 (converted)
Where a name gives a salt, the structure may show the parent alone.
Write the number in nM without appending the unit.

I would be grateful if you could share the reported EC50 for c1cc2c(cc1NC1=NCCN1)CCC2 [Example 1, 2-(5-Indanylamino)-2-imidazoline] .
11.5

I would be grateful if you could share the reported EC50 for CC(c1c[nH]cn1)c1cc(-c2ccccc2)nc2ccccc12 (centres unmarked) [Example 36, dihydrochloride] .
7.24

I would be grateful if you could share the reported EC50 for Brc1nc2c(c(Br)c1NC1=NCCN1)CCC2 [Example 29] .
13.8

I would be grateful if you could share the reported EC50 for Cc1cccc(C(C)c2cnc[nH]2)c1C (centres unmarked) [Medetomidine, reference compound] .
1.48

I would be grateful if you could share the reported EC50 for Cc1nc2c(c(C)c1NC1=NCCN1)CCC2 [Example 30] .
6.31
